Entries annotated with measured GI50
System: SR
Assay: NCI tumour cell line growth inhibition, 48 h
The source made the active and inactive calls. Rule as the data show it: active = GI50 up to about 1.1 µM and inactive = higher.

Example compounds with recorded GI50:
{"compound": "COC(=O)C1=C(C(=O)OC)C2(C)OC1C(=O)C21CC1 (configuration not stated)", "system": "SR", "observed measurement": "19 µM (inactive)"}
{"compound": "O=C1CCCC2=C1CC1=C(CCCC1=O)N2c1cccc([N+](=O)[O-])c1", "system": "SR", "observed measurement": "> 100 µM (inactive)"}
{"compound": "COC(=O)c1ccc(NCc2cc(OC)ccc2OC)cc1", "system": "SR", "observed measurement": "38 µM (inactive)"}

Exercise: Form field: reported GI50 of COC1=CC(=O)C(C2CC(=O)c3c(O)cc(O)cc3O2)=CC1=O (configuration not stated)
Key: 5.74 µM (inactive)

Exercise: Then this compound: `N/C(=N\c1ccc(Cl)cc1)NS(=O)(=O)c1ccc(S(=O)(=O)c2ccccc2)s1`
Key: 24.8 µM (inactive)

Exercise: Then this compound: `CN1CCc2c([nH]c3ccccc23)C1`
Key: > 100 µM (inactive)

Exercise: Then this compound: NNC(=O)CCC(NS(=O)(=O)c1ccc(Cl)cc1)C(=O)NN (configuration not stated)
Key: > 100 µM (inactive)
